# Tested on: human plasma
# experiment: Measurement of intrinsic coagulation time (APTT) in vitro
# Assay type: biochemical
Reported Concentration required to double coagulation time is given for each of the following molecules.
Give the number; µM is assumed, so skip it.

Worked cases, Concentration required to double coagulation time given:
>>> recorded_result("O=C1CN(S(=O)(=O)c2ccc3cc(Cl)ccc3c2)CC2OC3(CCN(c4ccncc4)CC3)CN12 (stereo not shown) [Example 9]")
0.29
>>> recorded_result("COCC12CN(S(=O)(=O)c3cc4ccc(Cl)cc4s3)CC(=O)N1CC1(CCN(c3ccncc3)CC1)N2 (stereo not shown) [Example 461]")
0.16
>>> recorded_result("COCC12CN(S(=O)(=O)c3ccc4ccccc4c3)CC(=O)N1CC1(CCN(c3ccncc3)CC1)O2 (stereo not shown) [Example 6]")
0.99
>>> recorded_result("O=C1CN(S(=O)(=O)c2cc3ccc(Cl)cc3s2)CC2NC3(CCN(c4ccncc4)CC3)CN12 (stereo not shown) [Example 275]")
0.17
>>> recorded_result("COCCOC(=O)C12CN(S(=O)(=O)c3ccc4cc(Cl)ccc4c3)CC(=O)N1CC1(CCN(c3ccncc3)CC1)O2 (single isomer, unassigned; (-)) [Example 42]")
0.20

**Query** Which measured Concentration required to double coagulation time value corresponds to COCC12CN(S(=O)(=O)c3cc4ccc(Cl)cc4s3)CC(=O)N1CC1(CCN(c3ccncc3)CC1)O2 (stereo not shown) [Example 399] ?
**Result** 0.18

**Query** Give the measured Concentration required to double coagulation time of COCC12CN(S(=O)(=O)c3cc4cc(Cl)ccc4o3)CC(=O)N1CC1(CCN(c3ccncc3)CC1)N2 (stereo not shown) [Example 471] .
**Result** 0.27

**Query** So what's the measured Concentration required to double coagulation time for this one? CC12CN(S(=O)(=O)c3ccc4cc(Cl)ccc4c3)CC(=O)N1CC1(CCN(c3ccncc3)CC1)O2 (stereo not shown) [Example 69]
**Result** 0.36

**Query** What Concentration required to double coagulation time value was documented for this molecule, COCC12CN(S(=O)(=O)c3cc4cc(Cl)ccc4o3)CC(=O)N1CC1(CCN(c3ccncc3)CC1)N2C (stereo not shown) [Example 533] ?
**Result** 0.35

**Query** Fill in: Concentration required to double coagulation time of NCC12CN(S(=O)(=O)c3ccc4cc(Cl)ccc4c3)CC(=O)N1CC1(CCN(c3ccncc3)CC1)O2 (stereo not shown) [Example 58] is ___
**Result** 0.18

**Query** Using the record for CC(C)OC(=O)C12CN(S(=O)(=O)c3ccc4cc(Cl)ccc4c3)CC(=O)N1CC1(CCN(c3ccncc3)CC1)O2 (stereo not shown) [Example 29] , report its Concentration required to double coagulation time.
**Result** 0.90

**Query** What does the data say about its Concentration required to double coagulation time? Entry: COCC12CN(S(=O)(=O)c3ccc4cc(Cl)ccc4c3)CC(=O)N1CC1(CCN(c3cc[n+](C)cc3)CC1)O2.Cc1ccc(S(=O)(=O)[O-])cc1 (stereo not shown) [Example 23]
**Result** 0.62

###

# target-or-test-system: human FXa (Homo sapiens, UniProt P00742)
# Sequence (P00742 235-488 limits assumed): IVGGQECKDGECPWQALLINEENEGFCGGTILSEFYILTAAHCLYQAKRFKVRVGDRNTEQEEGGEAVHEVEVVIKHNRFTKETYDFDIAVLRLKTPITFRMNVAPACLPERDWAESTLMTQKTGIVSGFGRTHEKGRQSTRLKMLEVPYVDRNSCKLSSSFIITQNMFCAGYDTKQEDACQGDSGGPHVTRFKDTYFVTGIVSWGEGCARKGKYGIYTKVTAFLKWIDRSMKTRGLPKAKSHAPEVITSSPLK
# Sequence (P00742 41-179 partner limits assumed): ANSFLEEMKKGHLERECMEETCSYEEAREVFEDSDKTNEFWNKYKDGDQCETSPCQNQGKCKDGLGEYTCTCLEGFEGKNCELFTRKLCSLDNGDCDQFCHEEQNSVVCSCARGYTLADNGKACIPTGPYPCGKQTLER
measured-attribute: pIC50
The meaning of pIC50 here: minus log10 of the concentration in molar units.

>>> recorded_result("CCOC(=O)[C@H]1CN(S(=O)(=O)c2ccc3cc(Cl)ccc3c2)CC(=O)N1CC1CCN(c2ccncc2)CC1")
4.55

Please find the next compound below.
**Query** For the compound O=C(C(CNS(=O)(=O)c1ccc2cc(Cl)ccc2c1)NCC1CCN(c2ccncc2)CC1)N1CCS(=O)(=O)CC1 (centres unmarked) , what pIC50 is on record?
**Result** 4.51
